target_entity: Acetylcholinesterase (Rattus norvegicus, UniProt P37136)
Sequence (P37136 whole entry): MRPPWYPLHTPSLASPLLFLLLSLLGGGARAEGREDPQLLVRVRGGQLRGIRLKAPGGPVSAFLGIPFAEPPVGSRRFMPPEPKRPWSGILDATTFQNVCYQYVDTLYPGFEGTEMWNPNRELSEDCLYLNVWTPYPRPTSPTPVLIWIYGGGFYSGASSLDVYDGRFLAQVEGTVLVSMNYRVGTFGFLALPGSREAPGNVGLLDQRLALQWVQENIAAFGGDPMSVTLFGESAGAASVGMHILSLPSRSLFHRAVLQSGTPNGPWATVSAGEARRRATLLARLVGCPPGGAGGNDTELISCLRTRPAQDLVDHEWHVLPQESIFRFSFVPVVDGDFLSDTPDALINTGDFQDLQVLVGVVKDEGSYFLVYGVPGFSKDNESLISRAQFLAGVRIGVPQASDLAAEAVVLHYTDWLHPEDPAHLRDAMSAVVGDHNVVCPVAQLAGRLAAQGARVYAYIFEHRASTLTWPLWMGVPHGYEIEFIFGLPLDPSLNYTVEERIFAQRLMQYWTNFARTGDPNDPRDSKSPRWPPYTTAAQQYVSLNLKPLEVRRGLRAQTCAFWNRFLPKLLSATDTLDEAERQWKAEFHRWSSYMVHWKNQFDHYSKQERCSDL
endpoint_name: pKi
Keep in mind that pKi stands for -log10 of concentration in molar terms.

Problem: Kindly indicate its recorded pKi. Item: O=C1c2cccc(O)c2C(=O)c2c(O)cc(C[n+]3ccccc3)cc21
Solution: 6.55

FYI, the data here is from ChEMBL document CHEMBL2331449.
